The origin of these recorded values is patent US20200140562A1.

Target: T1, human OX40 on cells (CHO-hOX40, 293HEK-hOX40, Jurkat-hOX40, activated primary CD4+ T cells) (human, UniProt P43489 29-277)
T1 construct: whole, on cells; The cell type is told in each assay; also called CHO-OX40
T1 sequence (looked up): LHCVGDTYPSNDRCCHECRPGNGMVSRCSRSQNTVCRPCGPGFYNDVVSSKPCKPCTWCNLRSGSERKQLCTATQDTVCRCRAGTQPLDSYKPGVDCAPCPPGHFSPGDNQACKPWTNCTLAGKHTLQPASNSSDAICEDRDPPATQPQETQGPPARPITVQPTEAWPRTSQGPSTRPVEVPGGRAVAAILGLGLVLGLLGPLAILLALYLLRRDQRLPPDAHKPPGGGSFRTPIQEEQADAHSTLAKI
Assay: flow cytometry, CHO-hOX40, 100 nM
observable: CHO-OX40 binding intensity (MFI)
One number for each entry, in MFI.

// worked examples, CHO-OX40 binding intensity (MFI) included
ADI-25651, IgG1 format (antibody, V domains shown, Made in yeast) VH: QVQLVESGGGVVQPGRSLRLSCAASGFTFSSRNMHWVRQAPGKGLEWVAVIAYDGSLKYYADSVKGRFTISRDNSKNTLYLQMNSLRAEDTAVYYCARGRPWYSETGTSAFDIWGQGTMVTVSS VL: DIQMTQSPSSLSASVGDRVTITCQASQDISNYLNWYQQKPGKAPKLLIYDASNLETGVPSRFSGSGSGTDFTFTISSLQPEDIATYYCQQSDHYPTFGGGTKVEIKR | 253000
ADI-25652, IgG1 format (antibody, V domains shown, Made in yeast) VH: QVQLVESGGGVVQPGRSLRLSCAASGFTFVSYNMHWVRQAPGKGLEWVAVIAYDGSVKYYADSVKGRFTISRDNSKNTLYLQMNSLRAEDTAVYYCARGRPWYSETGTSAFDIWGQGTMVTVSS VL: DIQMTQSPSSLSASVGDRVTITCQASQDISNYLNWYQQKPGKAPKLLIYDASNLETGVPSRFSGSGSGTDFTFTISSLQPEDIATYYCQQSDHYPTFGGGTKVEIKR | 253000

Proceed to the following item.
response.value for ADI-23518, IgG1 format (antibody, V domains shown, Made in yeast) VH: QVQLQESGPGLVKPSQTLSLTCTVSGGSISSGASYWSWIRQHPGKGLEWIGYIYYSGETYYNPSLKSRVTISVDTSKNQFSLKLSSVTAADTAVYYCARDVGYPHYYGMDVWGQGTTVTVSS VL: EIVLTQSPGTLSLSPGERATLSCRASQSVSSSYLAWYQQKPGQAPRLLIYGASSRATGIPDRFSGSGSGTDFTLTISRLEPEDFAVYYCQQSERSPFTFGGGTKVEIKR (field: CHO-OX40 binding intensity (MFI)) = 173000
